From: ChEMBL document CHEMBL5356935

# protocol notes: Half life in human
# Assay type: ADME
measured endpoint: half-life

Input: Can you look up the measured half-life of CCc1nc(N)nc(N)c1OCCCOc1ccccc1CCC(=O)O for me?
Output: < 20 h

###

# protocol notes: Kinetic solubility of the compound at pH 2.0 at 200 uM incubated for 2 hrs under shaking condition by HPLC analysis
# Type: physicochemical
# test conditions: buffer, read-out: Kinetic_solubility
measured endpoint: solubility kinetic at 2 h, 200 µM (µM)
Answer format: numeric, µM implied, no suffix.

Reference set (5 entries):
CCc1nc(N)nc(N)c1Cc1ccc(-c2cccc(C(=O)OC)c2)cc1.Cl; 186
CCc1nc(N)nc(N)c1Cc1cccc(-c2ccc(C(=O)O)cc2)c1.Cl.Cl; 188
CCc1nc(N)nc(N)c1Cc1ccc(-c2cccc(C(=O)O)c2)cc1.Cl; 192
CCc1nc(N)nc(N)c1OCCCOc1ccccc1CCC(=O)O; 207
CCc1nc(N)nc(N)c1Cc1ccc(-c2ccc(C(=O)O)cc2)cc1.Cl; 176

Shifting focus to the compound that follows.
Input: Form field: reported solubility kinetic at 2 h, 200 µM of CCc1nc(N)nc(N)c1Cc1ccc(-c2ccc(C(=O)OC)cc2)cc1.Cl
Output: 154

###

# tested on: Bifunctional dihydrofolate reductase-thymidylate synthase (Plasmodium falciparum K1)
# protocol notes: Inhibition of wild type Plasmodium falciparum DHFR using DHF as substrate at 500 uM in presence of NADPH by UV-Vis spectrometry analysis relative to control
# key: entry, value: inhibition
Only the number, expressed in %, is required.

COc1cccc(-c2ccc(C(=O)O)cc2)c1; 37.8
O=C(O)c1ccc(-c2cccnc2)cc1; 8.5
O=C(O)c1ccc(-c2ccc(O)cc2)cc1; 21.1
COc1ccccc1-c1ccc(C(=O)O)cc1; 14.6
O=C(O)c1ccc(-c2ccncc2)cc1; 2.93
COc1cccc(-c2ccc(C(=O)O)o2)c1; 12.7
Cc1ccc(-c2ccc(C(=O)O)cc2)o1; 27.4
O=C(O)c1ccccc1-c1ccco1; 6.5

Consider now this further compound.
Input: Requested field: inhibition. Item: O=C(O)c1ccc(-n2cccc2)cc1
Output: 8

###

# tested on: Bifunctional dihydrofolate reductase-thymidylate synthase (Plasmodium falciparum K1) (UniProt P13922)
# Sequence (P13922 whole entry, looked up): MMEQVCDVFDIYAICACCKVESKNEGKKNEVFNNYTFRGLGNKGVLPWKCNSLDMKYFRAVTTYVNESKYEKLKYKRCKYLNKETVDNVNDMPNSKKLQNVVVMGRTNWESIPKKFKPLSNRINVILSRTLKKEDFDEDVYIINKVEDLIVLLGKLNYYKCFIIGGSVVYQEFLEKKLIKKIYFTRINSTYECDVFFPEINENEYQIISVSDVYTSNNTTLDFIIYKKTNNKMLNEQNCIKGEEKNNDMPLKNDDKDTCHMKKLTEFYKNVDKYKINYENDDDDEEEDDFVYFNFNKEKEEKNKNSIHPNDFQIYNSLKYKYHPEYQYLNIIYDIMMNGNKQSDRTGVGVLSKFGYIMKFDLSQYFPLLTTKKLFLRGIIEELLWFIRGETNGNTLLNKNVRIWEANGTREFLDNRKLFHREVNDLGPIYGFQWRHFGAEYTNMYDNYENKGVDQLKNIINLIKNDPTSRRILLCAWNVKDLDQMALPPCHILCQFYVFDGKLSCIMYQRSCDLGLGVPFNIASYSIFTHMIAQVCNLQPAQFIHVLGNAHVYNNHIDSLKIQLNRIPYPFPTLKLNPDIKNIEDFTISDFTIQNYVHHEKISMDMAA
# protocol notes: Binding affinity to Plasmodium falciparum DHFR assessed as binding constant (koff) by surface plasmon resonance analysis
measured endpoint: log10 K (log10 of the value in s⁻¹)
log10 K, s⁻¹

Check out these entries, answers already filled in.
COc1cccc(-c2ccc(C(=O)O)o2)c1; -1.85
O=C(O)c1ccc(-c2ccccc2F)o1; -3.00

Input: Item under review: O=C(O)c1ccc(-c2cccnc2)cc1 . Reported log10 K?
Output: -3.00

Input: # lookup: log10 K of O=C(O)c1ccc(-c2cnco2)cc1
Output: -1.89

Input: What does the record list as log10 K for O=C(O)c1ccc(-c2ccccc2)cn1 ?
Output: -1.43

Input: GET /values?readout=log10 K&item= O=C(O)c1ccc(-c2ccc(O)cc2)cc1
Output: -1.96

Input: Sample Cc1ccc(-c2ccc(C(=O)O)cc2)o1 — what was its log10 K?
Output: -1.72

###

# tested on: Dihydrofolate reductase (Homo sapiens)
# Sequence (P00374 whole entry): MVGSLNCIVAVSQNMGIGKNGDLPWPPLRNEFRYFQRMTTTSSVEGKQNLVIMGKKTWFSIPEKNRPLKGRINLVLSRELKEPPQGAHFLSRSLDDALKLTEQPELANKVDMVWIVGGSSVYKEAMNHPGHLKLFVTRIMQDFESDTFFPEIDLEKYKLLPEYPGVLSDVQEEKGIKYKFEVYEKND
Rule: measured Ki below 20 nM gets Y; anything equal to or greater than 20 nM gets N.

CCc1nc(N)nc(N)c1Cc1ccc(-c2ccc(C(=O)OC)cc2)cc1.Cl; N
CCc1nc(N)nc(N)c1Cc1ccc(-c2cccc(C(=O)O)c2)cc1.Cl; N
CCc1nc(N)nc(N)c1Cc1ccc(-c2ccc(C(=O)O)cc2)cc1.Cl; N
CCc1nc(N)nc(N)c1Cc1cccc(-c2cccc(C(=O)OC)c2)c1; Y
CCc1nc(N)nc(N)c1Cc1cccc(-c2ccc(C(=O)OC)cc2)c1; Y

Now examine the next entry.
Input: Hi there! Is Ki for CCc1nc(N)nc(N)c1OCCCOc1ccccc1CCC(=O)O below 20 nM, do you know?
Output: Y

###

# System: Plasmodium falciparum
# protocol notes: Inhibition of Plasmodium falciparum DHFR N51I/C59R/S108N/I164L quadruple mutant using DHF as substrate at 500 uM in presence of NADPH by UV-Vis spectrometry analysis relative to control
measured endpoint: inhibition (%)
Your answer should be a plain number; it is taken to be in %.

Worked cases, inhibition given:
O=C(O)c1cccc(-c2cccnc2)c1; 3.89
O=C(O)c1ccc(-c2ccncc2)cc1; 10.1
O=C(O)c1ccc(-c2ccccc2F)o1; 2.6
O=C(O)c1ccccc1-c1ccco1; 7.7
COc1ccccc1-c1ccc(C(=O)O)cc1; 24
O=C(O)c1ccc(-c2ccccc2)cn1; 7

Input: Query the reported inhibition for Plasmodium falciparum; item: O=C(O)c1ccc(-c2cnco2)cc1
Output: 11.3

Input: # returns recorded inhibition (system: Plasmodium falciparum) for O=C(O)c1ccc(-c2ccc(O)cc2)cc1
Output: 24.9

Input: Which measured inhibition belongs to O=C(O)c1cccc(-c2ccncc2)c1 , tested on Plasmodium falciparum?
Output: 19.5

Input: Can you look up inhibition on Plasmodium falciparum for Cc1ccc(-c2ccc(C(=O)O)cc2)o1 ?
Output: 23.1

Input: Which inhibition is reported with Plasmodium falciparum for this entry: O=C(O)c1ccc(-c2cccnc2)cc1 ?
Output: 2.4

Input: inhibition of COc1cccc(-c2ccc(C(=O)O)cc2)c1 on Plasmodium falciparum?
Output: 45.8

Input: Record lookup: for Plasmodium falciparum, what inhibition belongs to O=C(O)c1ccc(-n2cccc2)cc1 ?
Output: 19.4

###

# protocol notes: Kinetic solubility of the compound at pH 6.5 at 200 uM incubated for 2 hrs under shaking condition by HPLC analysis
# Assay type: physicochemical
# test conditions: buffer, read-out: Kinetic_solubility
measured endpoint: solubility kinetic at 2 h, 200 µM

CCc1nc(N)nc(N)c1Cc1ccc(-c2ccc(C(=O)O)cc2)cc1.Cl; 11.4 µM
CCc1nc(N)nc(N)c1Cc1ccc(-c2ccc(C(=O)OC)cc2)cc1.Cl; < 4 µM
CCc1nc(N)nc(N)c1Cc1cccc(-c2ccc(C(=O)O)cc2)c1.Cl.Cl; 19.2 µM
CCc1nc(N)nc(N)c1Cc1ccc(-c2cccc(C(=O)O)c2)cc1.Cl; 15.7 µM
CCc1nc(N)nc(N)c1OCCCOc1ccccc1CCC(=O)O; 204 µM

Input: Need solubility kinetic at 2 h, 200 µM, item CCc1nc(N)nc(N)c1Cc1ccc(-c2cccc(C(=O)OC)c2)cc1.Cl
Output: 8.8 µM

###

# tested on: Bifunctional dihydrofolate reductase-thymidylate synthase (Plasmodium falciparum K1) (UniProt P13922)
# protocol notes: Binding affinity to Plasmodium falciparum DHFR assessed as binding constant (kon) by surface plasmon resonance analysis
Lab note: cut-off is 10 M⁻¹ s⁻¹. Strictly less in K is 1.0. Exactly 10 M⁻¹ s⁻¹ or more is 0.0.

Known results for molecules:
O=C(O)c1ccnc(-c2ccccc2)c1; 1.0
O=C(O)c1ccc(-c2cccnc2)cc1; 1.0
O=C(O)c1ccc(-c2ccncc2)cc1; 0.0
COc1cccc(-c2ccc(C(=O)O)o2)c1; 1.0
Cc1oc(-c2ccccc2)cc1C(=O)O; 1.0

Input: For Cc1ccc(-c2ccc(C(=O)O)cc2)o1 , is the recorded K below the cut-off of 10 M⁻¹ s⁻¹?
Output: 0.0

###

# protocol notes: Metabolic stability in rat liver microsomes assessed as intrinsic clearance measured upto 60 mins in presence of NADPH by LC-MS/MS analysis
# Type: ADME, Microsome
# test conditions: read-out: CLH
measured endpoint: microsomal CLint (µL/min/mg)
Just the number in µL/min/mg, nothing appended.

CCc1nc(N)nc(N)c1Cc1ccc(-c2cccc(C(=O)OC)c2)cc1.Cl; 100

Okay, next one:
Input: Given the entry CCc1nc(N)nc(N)c1Cc1ccc(-c2ccc(C(=O)OC)cc2)cc1.Cl , report its measured microsomal CLint.
Output: 764

###

# tested on: Bifunctional dihydrofolate reductase-thymidylate synthase (Plasmodium falciparum K1) (UniProt P13922)
# protocol notes: Binding affinity to Plasmodium falciparum DHFR assessed as binding constant (koff) by surface plasmon resonance analysis
The label Yes is reserved for K strictly under 0.01 s⁻¹; No covers values equal to or above it.

Input: Given the entry O=C(O)c1ccc(-n2cccc2)cc1 , would its reported K be below 0.01 s⁻¹?
Output: Yes

Input: Find out if reported K for O=C(O)c1cccc(-c2cccnc2)c1 is less than 0.01 s⁻¹
Output: Yes

Input: Does O=C(O)c1ccccc1-c1ccco1 have K strictly under 0.01 s⁻¹?
Output: No

Input: Dear reviewer, please state whether O=C(O)c1ccc(-c2ccncc2)cc1 has K strictly beneath 0.01 s⁻¹.
Output: Yes

Input: Hello, is K of the following molecule strictly smaller than 0.01 s⁻¹? Cc1oc(-c2ccccc2)cc1C(=O)O
Output: No

Input: Given O=C(O)c1cccc(-c2ccccc2)n1 , is recorded K strictly lower than 0.01 s⁻¹?
Output: No
